Some compounds, each annotated with its measured GI50.
Test system: M14
MEASUREMENT DESCRIPTION: NCI tumour cell line growth inhibition, 48 h
The source made the active and inactive calls. No stated cut-off is given here; in the data, active = GI50 up to about 1.1 µM and inactive = higher.

Look over these answered cases.
COc1ccc(-c2c(C#N)c(N)n(C3OCC(O)C(O)C3O)c(=S)c2C#N)cc1 (stereo not drawn): > 100 µM (inactive)
CCCCc1c2c(nc3c1CCCC3=O)CCCC2: > 100 µM (inactive)
COc1cc(OC)c2c(c1)C(=O)C(CC1(C)OCCCO1)=CC2=O: 13 µM (inactive)
O=c1oc2c3ccc4ccccc4c3n(CCN3CCCCC3)c2c2ccccc12: 20 µM (inactive)
Cc1cccc2c1Oc1cc(Cl)ccc1C2NC(=O)CN(C)C (stereo not drawn): 24 µM (inactive)

Please give the measured GI50 for this compound: CCN1CCC(O)(/C=C/c2ccc(Cl)cc2)C(C(=O)/C=C/c2ccc(Cl)cc2)C1 (stereo not drawn)
34.6 µM (inactive)

Given the entry "Cc1ccccc1NC(=O)CSc1nnc(-c2ccc(/N=C\c3ccc(Cl)cc3)cc2)o1" , report its measured GI50.
> 100 µM (inactive)

I am curious: what GI50 value has been reported for CC1SC(=O)SC1C (stereo not drawn) ?
> 100 µM (inactive)

Find the recorded GI50 belonging to "Cn1ncc(NCCn2cnc3c2c(=O)n(C)c(=O)n3C)c(Cl)c1=O" and report it.
> 100 µM (inactive)

Any idea what its GI50 is? The compound is "CCOC(=O)C(=[N+]=[N-])C(=O)Nc1nn2nnnc2c2ccccc12"
> 100 µM (inactive)

// GI50 lookup, key: "Cc1nc(=O)n2c(c1C(=O)Nc1ccc(Cl)cc1)NCCC2"
> 100 µM (inactive)
